Reference source: ChEMBL document CHEMBL1133877

# subject of test: Estrogen receptor beta (Homo sapiens, UniProt Q92731)
# Sequence (Q92731 whole entry): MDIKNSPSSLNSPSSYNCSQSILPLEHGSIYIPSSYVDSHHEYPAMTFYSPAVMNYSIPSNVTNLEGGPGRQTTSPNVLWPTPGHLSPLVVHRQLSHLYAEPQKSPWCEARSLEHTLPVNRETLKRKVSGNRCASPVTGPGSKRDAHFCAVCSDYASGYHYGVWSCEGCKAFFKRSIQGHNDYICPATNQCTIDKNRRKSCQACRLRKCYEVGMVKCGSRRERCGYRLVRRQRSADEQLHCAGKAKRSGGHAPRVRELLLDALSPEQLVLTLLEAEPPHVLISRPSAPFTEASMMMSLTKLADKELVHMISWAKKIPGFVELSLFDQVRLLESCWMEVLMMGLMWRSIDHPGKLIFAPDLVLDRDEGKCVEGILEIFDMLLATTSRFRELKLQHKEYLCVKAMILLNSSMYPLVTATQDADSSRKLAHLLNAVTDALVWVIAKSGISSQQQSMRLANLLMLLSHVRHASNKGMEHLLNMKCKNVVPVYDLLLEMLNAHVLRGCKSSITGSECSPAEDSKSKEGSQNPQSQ
Note to self: Ki under 1000 nM means Met, ties and anything higher get Not met.

Q) Consider the compound CC(C)CN(C)c1cc(-c2ccccc2)cc(-c2ccc(O)cc2)n1 . Is its Ki strictly less than 1000 nM?
A) Not met

Q) Consider the compound CCCN(Cc1ccccn1)c1cc(-c2ccccc2)cc(-c2ccc(O)c(C)c2)n1 . Is its Ki strictly less than 1000 nM?
A) Met

Q) Consider the compound Cc1ccccc1-c1cc(-c2ccc(O)cc2)nc(N(C)CCc2ccccc2)c1 . Is its Ki strictly less than 1000 nM?
A) Not met

Q) Consider the compound Cc1cc(-c2cc(-c3ccccc3)cc(N(C)Cc3cccc4ccccc34)n2)ccc1O . Is its Ki strictly less than 1000 nM?
A) Not met

Q) Consider the compound CCCCN(C)c1cc(-c2ccccc2)cc(-c2ccc(O)c(C)c2)n1 . Is its Ki strictly less than 1000 nM?
A) Met

----------
Below are pKi values recorded for Estrogen receptor (Homo sapiens, UniProt P03372).
Value format note: pKi is -log10 of concentration (mol/L); just state the number.

Q) Item Cc1cc(-c2cc(-c3ccccc3)cc(N(C)Cc3ccccc3)n2)ccc1O has what recorded pKi?
A) 6.42

----------
Below are Ki values recorded for Estrogen receptor (Homo sapiens, UniProt P03372).
Number only, in nM; omit the unit.

CCN(Cc1ccncc1)c1cc(-c2ccccc2)cc(-c2ccc(O)c(C)c2)n1: 830

Q) Please state recorded Ki (tested on Estrogen receptor (Homo sapiens, UniProt P03372)) of Cc1cc(-c2cc(-c3ccccc3)cc(N3CCC(Cc4ccccc4)CC3)n2)ccc1O
Sequence (P03372 whole entry): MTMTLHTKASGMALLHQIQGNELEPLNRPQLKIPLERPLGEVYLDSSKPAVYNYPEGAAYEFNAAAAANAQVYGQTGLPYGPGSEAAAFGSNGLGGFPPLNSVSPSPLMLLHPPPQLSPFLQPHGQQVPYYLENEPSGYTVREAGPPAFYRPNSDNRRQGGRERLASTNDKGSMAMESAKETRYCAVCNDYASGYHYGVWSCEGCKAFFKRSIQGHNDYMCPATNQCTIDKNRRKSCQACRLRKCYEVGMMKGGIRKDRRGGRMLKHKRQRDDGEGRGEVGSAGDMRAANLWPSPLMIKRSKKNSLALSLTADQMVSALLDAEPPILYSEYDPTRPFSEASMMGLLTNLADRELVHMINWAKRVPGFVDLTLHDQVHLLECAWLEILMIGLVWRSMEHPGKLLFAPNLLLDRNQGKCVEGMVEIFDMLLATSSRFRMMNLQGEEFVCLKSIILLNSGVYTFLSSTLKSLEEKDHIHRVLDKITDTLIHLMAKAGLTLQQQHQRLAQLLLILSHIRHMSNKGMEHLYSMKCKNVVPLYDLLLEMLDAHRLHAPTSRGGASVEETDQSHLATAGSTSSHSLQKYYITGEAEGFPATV
A) 20

Q) Please state recorded Ki (tested on Estrogen receptor (Homo sapiens, UniProt P03372)) of CCCCN(C)c1cc(-c2ccccc2)cc(-c2ccc(O)c(C)c2)n1
A) 660

Q) Please state recorded Ki (tested on Estrogen receptor (Homo sapiens, UniProt P03372)) of Cc1cc(-c2cc(-c3ccccc3)cc(N(C)Cc3cccc4ccccc34)n2)ccc1O
A) 450

----------
Collected Ki values appear next to each entry.
# subject of test: Estrogen receptor (Homo sapiens, UniProt P03372)
Number only, in nM; omit the unit.

Examples from the recorded data:
Cc1cc(-c2cc(-c3ccccc3)cc(N(CCc3ccccc3)Cc3ccccc3)n2)ccc1O: 130
Cc1cc(-c2cc(-c3ccccc3)cc(N(C)CC(C)C)n2)ccc1O: 210
Cc1cc(-c2cc(-c3ccccc3)cc(N(C)CCc3ccccn3)n2)ccc1O: 1260
CCCN(Cc1ccccn1)c1cc(-c2ccccc2)cc(-c2ccc(O)c(C)c2)n1: 70

Shifting focus to the compound that follows.
Q) Item Cc1cc(-c2cc(-c3ccccc3)cc(N(C)CCc3ccccc3)n2)ccc1O has what recorded Ki?
A) 160

----------
Below are Ki values recorded for Estrogen receptor beta (Homo sapiens).

Cc1cc(-c2cc(-c3ccccc3)cc(N(C)CCc3ccccn3)n2)ccc1O: > 3000 nM
CN(CCc1ccccc1)c1cc(-c2ccccc2)cc(-c2ccc(O)cc2)n1: 1050 nM
CCCN(Cc1ccccn1)c1cc(-c2ccccc2)cc(-c2ccc(O)cc2)n1: 710 nM
Cc1cc(-c2cc(-c3ccccc3)cc(N(C)CC(C)C)n2)ccc1O: 660 nM
CN(CCc1ccccc1)c1cc(-c2ccc(O)cc2)cc(-c2ccc(O)cc2)n1: > 3000 nM

Q) Please state recorded Ki (tested on Estrogen receptor beta (Homo sapiens)) of Cc1cc(-c2cc(-c3ccccc3)cc(N(C)Cc3ccccc3)n2)ccc1O
A) 1120 nM

Q) Please state recorded Ki (tested on Estrogen receptor beta (Homo sapiens)) of Cc1cc(-c2cc(-c3ccccc3)cc(N3CCC(Cc4ccccc4)CC3)n2)ccc1O
A) 110 nM

Q) Please state recorded Ki (tested on Estrogen receptor beta (Homo sapiens)) of CCOCCN(CCOCC)c1cc(-c2ccccc2)cc(-c2ccc(O)c(C)c2)n1
A) 1170 nM

Q) Please state recorded Ki (tested on Estrogen receptor beta (Homo sapiens)) of Cc1cc(-c2cc(-c3ccccc3)cc(N(C)CCc3ccccc3)n2)ccc1O
A) 680 nM

Q) Please state recorded Ki (tested on Estrogen receptor beta (Homo sapiens)) of Cc1cc(-c2cc(-c3ccccc3)cc(N(CCc3ccccc3)Cc3ccccc3)n2)ccc1O
A) 250 nM
